- system_tested: T1, human GPC3 recombinant protein (purchased from Shanghai Rui Jin Biotechnology Co., Ltd.) (human, UniProt P51654 25-559, limits assumed)
- T1 construct: Bought recombinant protein; also called huGPC3; antigen GPC3
- procedure_details: SPR Biacore T200, antibody captured by anti-human IgG (Fc), GPC3 as analyte, single-cycle kinetics, 25 °C
test_readout: kon (M⁻¹ s⁻¹)
State just the number; it will be interpreted in M⁻¹ s⁻¹.

Which kon value belongs to P7D4 mutant single chain antibody am20 (scFv, not shown: a dimerising Fc or GST) scFv: QVQLQESGGGLVQPGRSLRLSCAASGFTFSTYAMNWVRQAPGKGLEWVSAISMSGESTYYADSVKGRFTISRDNSKNTLYLQMNSLRAEDTAVYYCAKDRRGSHADAFDVWGQGTLVTVSSGGGGSGGGGSGGGGSQSALTQPPSASGSPGQSVTISCTGTSSDVGGYNYVSWYQQYPGKAPKLLIYGNSNRPSGVPDRFSGSKSGTSASLAITGLQAEDGADYYCQSYDSSLRVVFGGGTKVTVLG ?
212000

Which kon value belongs to P7D4 mutant single chain antibody am14 (scFv, not shown: a dimerising Fc or GST) scFv: QVQLQESGGGLVQPGRSLRLSCAASGFTFSTYAMAWVRQAPGKGLEWVSEISSSGSRTYYADSVKGRFTISRDNSKNTLYLQMNSLRAEDTAVYYCAKDRRGSHADAFDVWGQGTLVTVSSGGGGSGGGGSGGGGSQSALTQPPSASGSPGQSVTISCTGTSSDVGGYNYVSWYQQYPGKAPKLLIYGNSNRPSGVPDRFSGSKSGTSASLAITGLQAEDGADYYCQSYDSSLRVVFGGGTKVTVLG ?
673000
